Tested on: LNCaP
assay_protocol: Cytotoxicity against human LNCap cells
Assay type: functional, cell-based
measurement_label: pEC50
API: returns pEC50 as number; meaning -log10 of concentration in mol/L.

query: Find the measured pEC50 of COc1cc(/C=C/C(=O)N2CCC=CC2=O)cc(OC)c1OCCN1CCN(C(=O)CN2CCC(C(=O)Nc3ncc(SCc4ncc(C(C)(C)C)o4)s3)CC2)CC1 and report it.
result: 8.49
